This listing pairs molecules with measured minimal effective concentration.
# Test system: Dirofilaria immitis microfilariae
# Experimental protocol: Dirofilaria immitis, Microfilariae (DiMF) In Vitro Assay
# Cond: Dirofilaria immitis; 72 hours; read-out: Di MF
Report only the number, with the unit µM understood.

**Query** Param item = Cc1noc(C)c1-c1ccc2c(c1)C1(CCN(C/C=C/c3ccc(Cl)cc3)CC1)CN2C(=O)NCc1ccnc(Cl)c1 ; retrieve measured minimal effective concentration.
**Result** 3.3

**Query** Same question for O=C(NCc1ccnc(F)c1)N1CC2(CCN(C/C=C/c3ccc(Cl)cc3)CC2)c2cc(C3CC3)ccc21 please.
**Result** 3.3

**Query** Also need O=C(NCc1cnc(Cl)s1)N1CC2(CCN(C/C=C/c3ccc(Cl)cc3)CC2)c2c1ccc(Cl)c2Cl , thanks.
**Result** 5.7

**Query** Thanks! And CC1(C)Oc2cc3c(cc2O1)C1(CCN(C/C=C/c2ccc(Cl)cc2)CC1)CN3C(=O)NCc1ccnc(Cl)c1 ?
**Result** 10

**Query** Consider next the molecule O=C(NCc1ccnc(Cl)c1)N1CC2(CCN(C/C=C/c3ccc(Cl)cc3)CC2)c2c1ccc(Cl)c2Cl in the same way.
**Result** 10

**Query** # iterate: O=C(NCc1ccnc(Cl)c1)N1CC2(CCN(C/C=C/c3ccc(Cl)c(Cl)c3)CC2)c2cc3c(cc21)CCC3
**Result** 10

**Query** What about O=C(NCc1ccnc(F)c1)N1CC2(CCN(C/C=C/c3ccc(Cl)cc3)CC2)c2cc(OC(F)(F)F)ccc21 ?
**Result** 3.3

**Query** Can you check O=C(NCc1ccnc(Cl)c1)N1CC2(CCN(C/C=C/c3ccc(Cl)c(Cl)c3)CC2)c2c1cccc2C(F)(F)F next?
**Result** 9.1

**Query** // repeat for O=C(NCc1ccnc(Cl)c1)N1CC2(CCN(C/C=C/c3ccc(F)cc3)CC2)c2cc3c(cc21)COC3 and report
**Result** 10

**Query** Same question, O=C(NCc1ccnc(Cl)c1)N1CC2(CCN(C/C=C/c3ccc(Cl)cc3)CC2)c2cc(Cl)c(Cl)cc21 this time
**Result** 7.6

**Query** Try this molecule next: O=C(NCc1ccnc(Cl)c1)N1CC2(CCN(C/C=C/c3ccc(Cl)cc3)CC2)c2c(F)cc(C(F)(F)F)cc21
**Result** 10

**Query** Now consider O=C(NCc1ccnc(Cl)c1)N1CC2(CCN(C/C=C/c3ccc(F)cc3)CC2)c2c1ccc(Cl)c2Cl and answer again.
**Result** 5.7

**Query** Now the same for O=C(NCc1ccnc(Cl)c1)N1CC2(CCN(C/C=C/c3ccc(Cl)c(Cl)c3)CC2)c2cc(F)c(C(F)(F)F)cc21
**Result** 10

**Query** O=C(NCc1ccnc(Cl)c1)N1CC2(CCN(C/C=C/c3ccc(F)cc3)CC2)c2cc(C(F)(F)F)ccc21 ?
**Result** 2.8

----------
Measured Ki, listed per entry for reference.
# Tgt: bovine vesicular acetylcholine transporter (VAChT) (Bos taurus)
# Experimental protocol: Radioligand Binding Assay
# Cond: Bovine binding Ki, CHO-K1 membranes with recombinant bovine VAChT, [3H]Compound X6 0.3 nM
Response body: numeric value in µM, unit text excluded.

As a guide, the following entries are already answered.
>>> df
                                   molecule  endpoint_unit  reported_value
0  O=C(NCc1ccnc(F)c1)N1CC2(CCN(C/C=C/c3ccc(C(F)(F)F)cc3)CC2)c2cc(Br)ccc21 [Example 107]             µM           0.486
1  CC1(C)Oc2cc3c(cc2O1)C1(CCN(C/C=C/c2ccc(Cl)cc2)CC1)CN3C(=O)NCc1ccnc(Cl)c1 [Example 8]             µM            1.52
2  O=C(NCc1ccnc(Cl)c1)N1CC2(CCN(C/C=C/c3ccc(F)cc3)CC2)c2c1ccc(F)c2Cl [Example 158]             µM          0.0548

Shifting focus to the molecule that follows.
**Query** Quick one: Ki for O=C(NCc1ccnc(Cl)c1)N1CC2(CCN(C/C=C/c3ccc(F)cc3)CC2)c2cc(C(F)(F)F)ccc21 [Example 154] ?
**Result** 0.283

----------
# Tgt: UniProt E1BK36
# Experimental protocol: Radioligand Binding Assay
# Cond: Bovine binding Ki, CHO-K1 membranes with recombinant bovine VAChT, [3H]Compound X6 0.3 nM
Recorded Ki determines the label; the label ranges are low class (below 300 nM), middle class (300 nM to below 1000 nM), high class (1000 nM or more)

                                   compound   label_class
0  N#Cc1cc2c(cc1C(F)(F)F)N(C(=O)NCc1ccnc(Cl)c1)CC21CCN(C/C=C/c2ccc(Cl)c(Cl)c2)CC1 [Example 132]     low class
1  COc1ccc(/C=C/CN2CCC3(CC2)CN(C(=O)NCc2ccnc(Cl)c2)c2ccc4sc(C)nc4c23)cc1 [Example 46]  middle class
2  O=C(NCc1ccnc(F)c1)N1CC2(CCN(C/C=C/c3ccc(Cl)cc3)CC2)c2cc(C(F)(F)F)ccc21 [Example 82]  middle class
3  O=C(NCc1ccnc(Cl)c1)N1CC2(CCN(C/C=C/c3ccc(F)cc3)CC2)c2c(OC(F)(F)F)ccc(Cl)c21 [Example 58]    high class
4  Cn1nccc1CNC(=O)N1CC2(CCN(C/C=C/c3ccc(Cl)c(Cl)c3)CC2)c2c1ccc1scnc21 [Example 27]     low class
5  O=C(NCc1ccnc(F)c1)N1CC2(CCN(C/C=C/c3ccc(Cl)c(Cl)c3)CC2)c2cc(-c3cn[nH]c3)ccc21 [Example 111]    high class
6  O=C(NCc1ccnc(F)c1)N1CC2(CCN(C/C=C/c3ccc(Cl)cc3)CC2)c2c(OC(F)(F)F)cccc21 [Example 94]    high class
7  O=C(NCc1ccnc(Cl)c1)N1CC2(CCN(C/C=C/c3ccc(F)cc3)CC2)c2cc3c(cc21)COC3 [Example 4]     low class

**Query** # bin label for O=C(NCC1CCCCC1)N1CC2(CCN(C/C=C/c3ccc(Cl)c(Cl)c3)CC2)c2c1ccc1scnc21 [Example 25]
**Result** high class

**Query** Next compound up: Cc1nc2c3c(ccc2s1)N(C(=O)NCc1ccnc(Cl)c1)CC31CCN(C/C=C/c2ccc(F)cc2)CC1 [Example 44]
**Result** middle class

----------
# Tgt: bovine vesicular acetylcholine transporter (VAChT) (Bos taurus)
# Sequence (E1BK36 1-524): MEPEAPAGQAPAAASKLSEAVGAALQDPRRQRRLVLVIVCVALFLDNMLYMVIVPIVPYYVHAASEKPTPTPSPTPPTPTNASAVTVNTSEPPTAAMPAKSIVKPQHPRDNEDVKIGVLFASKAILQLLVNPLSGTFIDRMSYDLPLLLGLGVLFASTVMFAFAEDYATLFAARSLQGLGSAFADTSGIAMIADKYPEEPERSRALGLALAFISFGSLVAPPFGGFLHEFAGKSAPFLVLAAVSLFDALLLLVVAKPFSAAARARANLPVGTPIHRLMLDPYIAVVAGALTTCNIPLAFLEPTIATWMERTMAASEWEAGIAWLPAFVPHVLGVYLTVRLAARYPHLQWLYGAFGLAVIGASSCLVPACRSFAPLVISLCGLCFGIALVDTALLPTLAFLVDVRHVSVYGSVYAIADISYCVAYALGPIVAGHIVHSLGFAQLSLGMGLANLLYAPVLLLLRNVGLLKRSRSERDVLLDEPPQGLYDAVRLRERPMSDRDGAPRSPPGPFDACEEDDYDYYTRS
Endpoint: Kd (nM)
# unit: nM | format: bare number

**Query** Field request: Kd | item: COc1ccc(/C=C/CN2CCC3(CC2)CN(C(=O)NCc2ccnc(Cl)c2)c2ccc(F)cc23)cc1 [Compound X6, reference compound]
**Result** 0.6

----------
# Tgt: bovine vesicular acetylcholine transporter (VAChT) (Bos taurus)
# Experimental protocol: Radioligand Binding Assay
# Cond: Bovine binding Ki, CHO-K1 membranes with recombinant bovine VAChT, [3H]Compound X6 0.3 nM
Listed here are compounds together with their documented Ki.
Hi! Could you send only the number? It should be in nM, unit omitted.

A selection of reference data follows.
                                   compound  reported_value
0  O=C(NCc1ccnc(Cl)c1)N1CC2(CCN(C/C=C/c3ccc(Cl)cc3)CC2)c2cc(C(F)(F)F)ccc21             226
1  O=C(NCc1ccnc(C(F)(F)F)c1)N1CC2(CCN(C/C=C/c3ccc(Cl)cc3)CC2)c2cc(OC(F)(F)F)ccc21             371
2  O=C(NCc1ccnc(Cl)c1)N1CC2(CCN(C/C=C/c3ccc(Cl)cc3)CC2)c2cc(OC(F)(F)F)ccc21 [Example 185]             283
3  COc1cc2c(cn1)C1(CCN(C/C=C/c3ccc(Cl)c(Cl)c3)CC1)CN2C(=O)NCc1ccnc(Cl)c1            49.4

**Query** Record request: Ki value, item Cc1noc(C)c1-c1ccc2c(c1)C1(CCN(C/C=C/c3ccc(Cl)cc3)CC1)CN2C(=O)NCc1ccnc(-c2c(C)noc2C)c1
**Result** 1360

**Query** Same for O=C(NCc1ccnc(Cl)c1)N1CC2(CCN(C/C=C/c3ccc(Cl)cc3)CC2)c2cc(-c3nccs3)ccc21
**Result** 308

**Query** Entry to check: O=C(NCc1ccnc(Cl)c1)N1CC2(CCN(C/C=C/c3ccc(Cl)c(Cl)c3)CC2)c2c1ccc(F)c2Cl
**Result** 21.7
